- subjectOfTest: Multidrug resistance-associated protein 1 (MRP1) (Homo sapiens, UniProt P33527)
- Sequence (P33527 whole entry): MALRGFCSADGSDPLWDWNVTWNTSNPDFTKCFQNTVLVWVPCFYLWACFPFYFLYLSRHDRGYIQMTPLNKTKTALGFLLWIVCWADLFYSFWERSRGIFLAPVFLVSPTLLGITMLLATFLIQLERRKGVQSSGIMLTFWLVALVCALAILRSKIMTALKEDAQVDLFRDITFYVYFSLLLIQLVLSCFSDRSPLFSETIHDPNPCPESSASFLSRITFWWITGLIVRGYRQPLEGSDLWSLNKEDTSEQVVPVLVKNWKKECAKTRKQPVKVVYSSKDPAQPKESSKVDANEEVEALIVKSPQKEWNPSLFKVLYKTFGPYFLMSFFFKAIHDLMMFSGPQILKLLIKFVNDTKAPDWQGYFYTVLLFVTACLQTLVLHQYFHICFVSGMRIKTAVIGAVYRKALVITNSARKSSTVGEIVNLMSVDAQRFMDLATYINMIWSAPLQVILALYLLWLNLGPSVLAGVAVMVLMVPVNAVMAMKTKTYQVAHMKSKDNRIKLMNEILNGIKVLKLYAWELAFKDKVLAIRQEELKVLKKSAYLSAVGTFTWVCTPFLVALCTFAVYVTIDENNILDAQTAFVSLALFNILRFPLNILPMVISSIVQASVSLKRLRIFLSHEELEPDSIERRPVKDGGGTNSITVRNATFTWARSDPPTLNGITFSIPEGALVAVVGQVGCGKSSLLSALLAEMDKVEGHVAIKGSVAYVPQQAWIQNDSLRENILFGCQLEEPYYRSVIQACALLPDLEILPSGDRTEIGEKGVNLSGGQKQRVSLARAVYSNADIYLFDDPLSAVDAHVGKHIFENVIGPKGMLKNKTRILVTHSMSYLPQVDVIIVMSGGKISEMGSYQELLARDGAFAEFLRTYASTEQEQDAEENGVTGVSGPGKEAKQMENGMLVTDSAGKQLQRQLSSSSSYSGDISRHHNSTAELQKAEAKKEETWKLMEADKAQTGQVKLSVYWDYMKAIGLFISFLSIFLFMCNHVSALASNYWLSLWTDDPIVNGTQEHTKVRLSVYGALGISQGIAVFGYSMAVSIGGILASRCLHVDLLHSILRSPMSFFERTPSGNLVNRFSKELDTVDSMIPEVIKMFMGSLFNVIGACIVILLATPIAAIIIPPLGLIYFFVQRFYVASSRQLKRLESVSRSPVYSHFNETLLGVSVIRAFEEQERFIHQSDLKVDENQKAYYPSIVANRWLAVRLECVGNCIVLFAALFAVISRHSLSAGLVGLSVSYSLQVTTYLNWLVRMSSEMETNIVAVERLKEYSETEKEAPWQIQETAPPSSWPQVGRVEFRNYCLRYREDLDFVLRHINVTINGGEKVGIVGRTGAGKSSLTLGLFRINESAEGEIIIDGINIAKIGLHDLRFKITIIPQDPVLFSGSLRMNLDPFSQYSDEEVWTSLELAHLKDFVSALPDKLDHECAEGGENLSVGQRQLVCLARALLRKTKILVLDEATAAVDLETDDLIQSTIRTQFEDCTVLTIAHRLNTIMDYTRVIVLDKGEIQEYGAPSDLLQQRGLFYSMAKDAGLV
- assayOverview: TP_TRANSPORTER: inhibition of DNP-SG uptake (DNP-SG: 0.01 uM, MTX: 10 uM) in membrane vesicles from GLC4/ADR cells
- Assay type: functional, cell membranes, GLC-4/ADR, Membrane vesicle
- Set-up: scale not given: the % may be the effect or the level left
- appliedConditions: probe DNP-SG, read-out: Activity

| compound | activity at 10 µM (%) |
| --- | --- |
| CN(Cc1cnc2nc(N)nc(N)c2n1)c1ccc(C(=O)N[C@@H](CCC(=O)O)C(=O)O)cc1 [METHOTREXATE] | 82 |
